Assay: Pharmacokinetics in mice (IP, IV, PO)
Format: in vivo
Conditions: mouse, in vivo; mice, IV 5 mg/kg
Protocol: FIG. 2A is the pharmacokinetic data of compound 1 administered by intraperitoneal injection (IP) into mice at 10 mg/kg, according to some embodiments of the present disclosure; FIG. 2B is the pharmacokinetic data of compound 1 administered by intravenous injection (IV) into mice at 1 mg/kg and per os (PO) at 5 mg/kg, according to some embodiments of the present disclosure;
measured attribute: MRT inf (h)
API: value field is a number in h; no unit string.

In plain terms, C=CC(=O)Nc1cccc(C)c1Nc1cc(-c2cccnc2Nc2c(Cl)c(OC)cc(OC)c2Cl)ncn1 [Compound 5, reference compound] has a documented MRT inf of 18.5

* * *

Test: Pharmacokinetics in mice (IP, IV, PO)
Format: in vivo
Settings: mouse, in vivo; mice, IV 5 mg/kg
measured attribute: AUC(0-inf) (ng·h/mL)
API: value field is a number in ng·h/mL; no unit string.

In plain terms, C=CC(=O)Nc1cccc(C)c1Nc1cc(-c2cccnc2Nc2c(Cl)c(OC)cc(OC)c2Cl)ncn1 [Compound 5, reference compound] has a documented AUC(0-inf) of 1240

* * *

The compounds listed here are annotated with their Papp A→B.
Test: MDCK permeability
Assay type: in vitro ADME
Settings: dog
API: value field is a number in ×10⁻⁶ cm/s; no unit string.

compound: C=CC(=O)N[C@H]1COC[C@H]1Nc1cc(-c2cccnc2Nc2c(Cl)c(OC)cc(OC)c2Cl)ncn1
Papp A→B, ×10⁻⁶ cm/s: 25.8

In plain terms, C=CC(=O)Nc1cccc(C)c1Nc1cc(-c2cccnc2Nc2c(Cl)c(OC)cc(OC)c2Cl)ncn1 [Compound 5, reference compound] has a documented Papp A→B of 11.4

* * *

Assay: Pharmacokinetics in mice (IP, IV, PO)
Type: in vivo
Details: mouse, in vivo; mice, PO 100 mg/kg
measured attribute: Cmax (ng/mL)
API: value field is a number in ng/mL; no unit string.

In plain terms, C=CC(=O)Nc1cccc(C)c1Nc1cc(-c2cccnc2Nc2c(Cl)c(OC)cc(OC)c2Cl)ncn1 [Compound 5, reference compound] has a documented Cmax of 180

* * *

Test: Pharmacokinetics in mice (IP, IV, PO)
Format: in vivo
Conditions: mouse, in vivo; mice, IV 5 mg/kg
measured attribute: MRT last

In plain terms, C=CC(=O)Nc1cccc(C)c1Nc1cc(-c2cccnc2Nc2c(Cl)c(OC)cc(OC)c2Cl)ncn1 [Compound 5, reference compound] has a documented MRT last of 7.71 h

* * *

Assay: Pharmacokinetics in mice (IP, IV, PO)
Format: in vivo
Conditions: in vivo, intravenous; mouse; Table 2 summary; read-out: Vss
measured attribute: Vd (L/kg)
API: value field is a number in L/kg; no unit string.

In plain terms, C=CC(=O)N[C@H]1COC[C@H]1Nc1cc(-c2cccnc2Nc2c(Cl)c(OC)cc(OC)c2Cl)ncn1 has a documented Vd of 0.88

* * *

Assay: Pharmacokinetics in mice (IP, IV, PO)
Assay type: in vivo
Conditions: mouse, in vivo; mice, PO 5 mg/kg
measured attribute: Tmax (h)
API: value field is a number in h; no unit string.

In plain terms, C=CC(=O)N[C@H]1COC[C@H]1Nc1cc(-c2cccnc2Nc2c(Cl)c(OC)cc(OC)c2Cl)ncn1 [Compound 1] has a documented Tmax of 3.17
